These measurements were taken from ChEMBL document CHEMBL4229384.

tgt: Acetylcholinesterase (Electrophorus electricus, UniProt O42275)
Sequence (O42275 whole entry): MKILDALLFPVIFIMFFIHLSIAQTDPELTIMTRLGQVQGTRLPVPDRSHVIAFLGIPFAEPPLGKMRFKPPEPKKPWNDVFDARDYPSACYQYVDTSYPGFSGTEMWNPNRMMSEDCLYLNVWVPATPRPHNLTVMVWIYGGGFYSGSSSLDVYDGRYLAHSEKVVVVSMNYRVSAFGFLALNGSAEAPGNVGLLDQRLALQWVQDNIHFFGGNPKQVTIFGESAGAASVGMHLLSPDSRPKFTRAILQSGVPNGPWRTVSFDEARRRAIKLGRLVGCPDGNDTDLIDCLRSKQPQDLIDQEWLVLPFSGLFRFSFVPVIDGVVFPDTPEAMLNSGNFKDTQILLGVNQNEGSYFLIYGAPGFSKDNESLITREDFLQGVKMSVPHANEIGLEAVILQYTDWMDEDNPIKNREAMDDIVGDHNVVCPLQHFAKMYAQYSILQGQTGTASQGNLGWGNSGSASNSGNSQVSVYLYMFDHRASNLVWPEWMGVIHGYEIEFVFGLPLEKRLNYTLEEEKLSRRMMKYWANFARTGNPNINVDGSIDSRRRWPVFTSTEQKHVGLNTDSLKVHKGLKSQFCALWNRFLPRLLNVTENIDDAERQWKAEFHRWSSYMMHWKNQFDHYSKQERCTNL
protocol-summary: Inhibition of electric eel AChE using acetylthiocholine iodide as substrate measured for 120 secs by spectrophotometric analysis
result-type: pIC50
# pIC50: negative log10 of molar concentration; output just the value

q: Any idea what its pIC50 is? The compound is "COc1ccc2c3c1O[C@H]1C[C@@H](O)CC[C@@]31CCN(CCCCCCCCCCCC[N+]1=Cc3ccc(OC)c4c3[C@@]3(C=C[C@H](O)C[C@@H]3O4)CC1)C2"
a: 7.92

q: Any idea what its pIC50 is? The compound is "COc1ccc2c3c1O[C@H]1C[C@@H](O)CC[C@@]31CCN(CCCCCCN1CC[C@@]34C=C[C@H](O)C[C@@H]3Oc3c(OC)ccc(c34)C1)C2"
a: 6.35

q: Any idea what its pIC50 is? The compound is "COc1ccc2c3c1O[C@H]1C[C@@H](O)CC[C@@]31CCN(CCCCCCCCN1CC[C@@]34C=C[C@H](O)C[C@@H]3Oc3c(OC)ccc(c34)C1)C2"
a: 6.64

---

tgt: DNA
protocol-summary: Binding affinity to human estrogen receptor DNA assessed as estrogen receptor PCR product formation
Format: nucleic-acid assay
result-type: IC50 (µM)
Numbers only; they are read as µM.

q: // fetch DNA IC50 for "COc1cc2c(cc1OCCC(=O)Nc1cc(C(=O)Nc3cc(C(=O)Nc4cc(C(=O)NCCC(=N)N)n(C)c4)n(C)c3)n(C)c1)N=C[C@@H]1CCCN1C2=O"
a: 8

---

Test system: IGR-1
protocol-summary: Cytotoxicity against human IGR-1 cells assessed as reduction in cell viability after 24 to 72 hrs by MTT assay
Format: functional, cell-based
result-type: pIC50
# pIC50: negative log10 of molar concentration; output just the value

q: // fetch IGR-1 pIC50 for "CC(C)[C@@H](C)/C=C/[C@@H](C)[C@H]1CC[C@H]2c3ccc4c(c3CC[C@]12C)C(=O)c1c(O)ccc(O)c1C4=O"
a: 4.64

---

Test system: P338
protocol-summary: Cytotoxicity against mouse […] cells assessed as reduction in cell viability after 24 to 72 hrs by MTT assay
Type: functional, cell-based
result-type: IC50 (µM)
Numbers only; they are read as µM.

q: Any idea what its IC50 is? The compound is "CC(C)[C@@H](C)/C=C/[C@@H](C)[C@H]1CC[C@H]2c3ccc4c(c3CC[C@]12C)C(=O)c1c(O)ccc(O)c1C4=O"
a: 49

---

result-type: pIC50
# pIC50: negative log10 of molar concentration; output just the value

q: // fetch Nitric oxide synthase, inducible (Rattus norvegicus, UniProt Q06518) pIC50 for "CC1(C)CC[C@]2(C(=O)O)CC[C@]3(C)C(=CC[C@@H]4[C@@]5(C)C=CC(=O)C=C5CC[C@]43C)[C@@H]2C1"
a: 6.05

---

tgt: Estrogen receptor (Homo sapiens)
Sequence (P03372 whole entry): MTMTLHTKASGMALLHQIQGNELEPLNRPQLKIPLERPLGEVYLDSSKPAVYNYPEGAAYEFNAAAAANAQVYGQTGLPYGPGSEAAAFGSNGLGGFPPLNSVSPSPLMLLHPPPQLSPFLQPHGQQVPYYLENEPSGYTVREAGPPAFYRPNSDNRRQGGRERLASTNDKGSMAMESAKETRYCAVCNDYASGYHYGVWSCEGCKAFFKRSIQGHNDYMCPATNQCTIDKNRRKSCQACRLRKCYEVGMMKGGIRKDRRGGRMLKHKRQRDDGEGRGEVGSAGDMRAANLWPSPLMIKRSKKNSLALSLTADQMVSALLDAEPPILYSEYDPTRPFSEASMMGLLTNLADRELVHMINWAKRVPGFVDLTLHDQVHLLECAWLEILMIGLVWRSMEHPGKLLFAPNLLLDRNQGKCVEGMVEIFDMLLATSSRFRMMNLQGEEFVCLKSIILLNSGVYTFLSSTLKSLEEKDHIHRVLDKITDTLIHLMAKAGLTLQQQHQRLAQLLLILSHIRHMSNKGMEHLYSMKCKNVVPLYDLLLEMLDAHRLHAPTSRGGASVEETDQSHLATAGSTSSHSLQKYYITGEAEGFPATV
protocol-summary: Inhibition of human estrogen receptor alpha expressed in human MDA-MB-231 cells assessed as reduction in estrogen-induced transcriptional activation after 6 hrs by beta galactosidase reporter gene assay
Format: cell-based
result-type: pIC50
# pIC50: negative log10 of molar concentration; output just the value

q: // fetch Estrogen receptor (Homo sapiens) pIC50 for C[C@]12CC[C@@H]3c4ccc(O)cc4CC[C@H]3[C@@H]1CC[C@@]2(O)C#CC(=O)OCC1CC#C/C=C\C#CCC1 (stereo partly specified)
a: 4.32
